ASSAYED SYSTEM: Neutrophil collagenase (Homo sapiens, UniProt P22894)
Sequence (P22894 whole entry): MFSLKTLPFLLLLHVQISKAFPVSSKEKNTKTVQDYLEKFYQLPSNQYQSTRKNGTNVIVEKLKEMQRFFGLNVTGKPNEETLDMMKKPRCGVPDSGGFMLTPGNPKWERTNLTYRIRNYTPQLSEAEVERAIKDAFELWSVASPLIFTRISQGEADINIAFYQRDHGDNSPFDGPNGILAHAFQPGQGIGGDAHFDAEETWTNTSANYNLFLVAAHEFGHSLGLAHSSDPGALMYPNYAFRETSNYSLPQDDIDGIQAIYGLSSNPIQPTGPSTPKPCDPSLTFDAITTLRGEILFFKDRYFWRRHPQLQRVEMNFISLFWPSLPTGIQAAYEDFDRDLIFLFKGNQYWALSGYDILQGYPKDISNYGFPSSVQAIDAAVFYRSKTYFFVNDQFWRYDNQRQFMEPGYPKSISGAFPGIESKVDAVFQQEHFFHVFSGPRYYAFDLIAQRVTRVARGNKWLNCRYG
PROTOCOL SUMMARY: Inhibition of recombinant human MMP8 using QXL520-gamma-Abu-Pro-Cha-Abu-Smc-His-Ala-Dab(5-FAM)-Ala-Lys-NH2 as substrate measured every 5 mins for 2 hrs by FRET assay
EXPERIMENTAL READOUT: pIC50
# pIC50: negative log10 of molar concentration; output just the value

Enter recorded pIC50 with Neutrophil collagenase (Homo sapiens, UniProt P22894) for [2H]C([2H])(NC(=O)c1cc(C(=O)NCc2ccc(F)c(C)c2)ncn1)c1ccc(C(=O)O)cc1 here.
4.01

---

ASSAYED SYSTEM: Macrophage metalloelastase (Homo sapiens, UniProt P39900)
Sequence (P39900 whole entry): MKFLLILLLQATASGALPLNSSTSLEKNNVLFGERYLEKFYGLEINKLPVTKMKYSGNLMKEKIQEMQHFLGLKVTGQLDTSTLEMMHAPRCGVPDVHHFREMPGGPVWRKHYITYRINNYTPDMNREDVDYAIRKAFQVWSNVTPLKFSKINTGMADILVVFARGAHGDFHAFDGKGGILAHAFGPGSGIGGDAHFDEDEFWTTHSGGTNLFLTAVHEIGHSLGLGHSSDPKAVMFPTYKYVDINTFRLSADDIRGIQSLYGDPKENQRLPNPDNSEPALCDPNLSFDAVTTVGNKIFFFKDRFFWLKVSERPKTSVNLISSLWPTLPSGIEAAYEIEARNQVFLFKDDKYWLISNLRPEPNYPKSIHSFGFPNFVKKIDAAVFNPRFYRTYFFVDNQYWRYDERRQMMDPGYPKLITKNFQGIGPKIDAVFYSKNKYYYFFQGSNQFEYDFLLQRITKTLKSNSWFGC
PROTOCOL SUMMARY: Inhibition of recombinant human MMP12 using QXL520-gamma-Abu-Pro-Cha-Abu-Smc-His-Ala-Dab(5-FAM)-Ala-Lys-NH2 as substrate measured every 5 mins for 2 hrs by FRET assay
pIC50: −log10 of the molar value.
EXPERIMENTAL READOUT: pIC50

Could you please provide reported pIC50 for [2H]C([2H])(NC(=O)c1cc(C(=O)NCc2ccc(F)c(C)c2)ncn1)c1ccc(C(=O)O)cc1 ? Thanks!
< 4.00

---

ASSAYED SYSTEM: Stromelysin-1 (Homo sapiens, UniProt P08254)
Sequence (P08254 whole entry): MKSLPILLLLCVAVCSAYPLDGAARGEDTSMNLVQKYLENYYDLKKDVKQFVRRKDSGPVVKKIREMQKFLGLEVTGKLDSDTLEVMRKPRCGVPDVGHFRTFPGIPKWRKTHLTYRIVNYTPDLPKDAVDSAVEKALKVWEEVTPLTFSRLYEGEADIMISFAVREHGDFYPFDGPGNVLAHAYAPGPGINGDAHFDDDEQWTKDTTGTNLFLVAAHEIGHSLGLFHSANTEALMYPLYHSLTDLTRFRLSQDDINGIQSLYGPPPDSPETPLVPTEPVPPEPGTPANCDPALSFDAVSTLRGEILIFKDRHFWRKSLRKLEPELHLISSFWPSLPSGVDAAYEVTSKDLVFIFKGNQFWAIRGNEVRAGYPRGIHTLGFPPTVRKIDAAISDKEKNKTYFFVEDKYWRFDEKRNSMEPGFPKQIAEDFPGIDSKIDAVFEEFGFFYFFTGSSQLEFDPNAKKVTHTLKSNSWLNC
PROTOCOL SUMMARY: Inhibition of recombinant human MMP3 using QXL520-gamma-Abu-Pro-Cha-Abu-Smc-His-Ala-Dab(5-FAM)-Ala-Lys-NH2 as substrate measured every 5 mins for 2 hrs by FRET assay
pIC50: −log10 of the molar value.
EXPERIMENTAL READOUT: pIC50

Could you please provide reported pIC50 for [2H]C([2H])(NC(=O)c1cc(C(=O)NCc2ccc(F)c(C)c2)ncn1)c1ccc(C(=O)O)cc1 ? Thanks!
< 4.00

---

PROTOCOL SUMMARY: Stability in rat liver microsomes assessed as parent compound remaining at 1 uM measured after 60 mins in presence of NADPH by LC-MS/MS analysis
Type: ADME, Microsome
CONDITION: read-out: Stability
EXPERIMENTAL READOUT: remaining at 1 h, 1 µM (%)
Note: unit % is implicit; provide only the numeric part.

SMILES DATA	remaining at 1 h, 1 µM [%]
Cc1cc(CNC(=O)c2cc(C(=O)NCc3ccc(C(=O)O)cc3)ncn2)ccc1F	90

Turning now to a further record.
Could you please provide reported remaining at 1 h, 1 µM for [2H]C([2H])(NC(=O)c1cc(C(=O)NCc2ccc(F)c(C)c2)ncn1)c1ccc(C(=O)O)cc1 ? Thanks!
99

---

ASSAYED SYSTEM: Interstitial collagenase (Homo sapiens)
Sequence (P03956 whole entry): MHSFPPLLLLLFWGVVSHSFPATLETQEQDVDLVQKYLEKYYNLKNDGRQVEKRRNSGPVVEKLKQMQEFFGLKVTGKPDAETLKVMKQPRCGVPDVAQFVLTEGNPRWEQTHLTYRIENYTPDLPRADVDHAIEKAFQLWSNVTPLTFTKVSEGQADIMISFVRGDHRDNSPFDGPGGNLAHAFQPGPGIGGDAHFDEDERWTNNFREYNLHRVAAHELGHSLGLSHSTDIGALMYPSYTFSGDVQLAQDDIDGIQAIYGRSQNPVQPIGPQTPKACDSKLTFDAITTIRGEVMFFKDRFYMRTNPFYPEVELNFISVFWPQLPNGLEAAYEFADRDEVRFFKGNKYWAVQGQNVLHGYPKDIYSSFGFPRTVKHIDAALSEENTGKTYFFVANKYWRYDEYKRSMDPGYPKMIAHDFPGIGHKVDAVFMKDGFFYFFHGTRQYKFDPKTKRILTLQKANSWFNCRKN
PROTOCOL SUMMARY: Inhibition of recombinant human MMP1 using QXL520-gamma-Abu-Pro-Cha-Abu-Smc-His-Ala-Dab(5-FAM)-Ala-Lys-NH2 as substrate measured every 5 mins for 2 hrs by FRET assay
EXPERIMENTAL READOUT: IC50

Could you please provide reported IC50 for [2H]C([2H])(NC(=O)c1cc(C(=O)NCc2ccc(F)c(C)c2)ncn1)c1ccc(C(=O)O)cc1 ? Thanks!
> 100 µM

---

ASSAYED SYSTEM: Matrilysin (Homo sapiens)
Sequence (P09237 whole entry): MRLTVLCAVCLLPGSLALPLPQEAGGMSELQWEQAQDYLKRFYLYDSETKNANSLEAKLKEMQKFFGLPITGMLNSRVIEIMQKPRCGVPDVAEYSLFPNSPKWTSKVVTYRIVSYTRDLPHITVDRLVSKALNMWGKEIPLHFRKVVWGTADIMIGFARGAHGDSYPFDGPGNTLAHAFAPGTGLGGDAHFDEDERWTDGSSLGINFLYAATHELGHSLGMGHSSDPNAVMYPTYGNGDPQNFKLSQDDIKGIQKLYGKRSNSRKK
PROTOCOL SUMMARY: Inhibition of recombinant human MMP7 using QXL520-gamma-Abu-Pro-Cha-Abu-Smc-His-Ala-Dab(5-FAM)-Ala-Lys-NH2 as substrate measured every 5 mins for 2 hrs by FRET assay
EXPERIMENTAL READOUT: IC50

Could you please provide reported IC50 for [2H]C([2H])(NC(=O)c1cc(C(=O)NCc2ccc(F)c(C)c2)ncn1)c1ccc(C(=O)O)cc1 ? Thanks!
> 100 µM

---

ASSAYED SYSTEM: Collagenase 3 (Homo sapiens, UniProt P45452)
PROTOCOL SUMMARY: Inhibition of recombinant human MMP13 using QXL520-gamma-Abu-Pro-Cha-Abu-Smc-His-Ala-Dab(5-FAM)-Ala-Lys-NH2 as substrate measured every 5 mins for 2 hrs by FRET assay
EXPERIMENTAL READOUT: IC50 (nM)
Note: unit nM is implicit; provide only the numeric part.

Could you please provide reported IC50 for [2H]C([2H])(NC(=O)c1cc(C(=O)NCc2ccc(F)c(C)c2)ncn1)c1ccc(C(=O)O)cc1 ? Thanks!
4.8

---

ASSAYED SYSTEM: Matrix metalloproteinase-9 (Homo sapiens)
Sequence (P14780 whole entry): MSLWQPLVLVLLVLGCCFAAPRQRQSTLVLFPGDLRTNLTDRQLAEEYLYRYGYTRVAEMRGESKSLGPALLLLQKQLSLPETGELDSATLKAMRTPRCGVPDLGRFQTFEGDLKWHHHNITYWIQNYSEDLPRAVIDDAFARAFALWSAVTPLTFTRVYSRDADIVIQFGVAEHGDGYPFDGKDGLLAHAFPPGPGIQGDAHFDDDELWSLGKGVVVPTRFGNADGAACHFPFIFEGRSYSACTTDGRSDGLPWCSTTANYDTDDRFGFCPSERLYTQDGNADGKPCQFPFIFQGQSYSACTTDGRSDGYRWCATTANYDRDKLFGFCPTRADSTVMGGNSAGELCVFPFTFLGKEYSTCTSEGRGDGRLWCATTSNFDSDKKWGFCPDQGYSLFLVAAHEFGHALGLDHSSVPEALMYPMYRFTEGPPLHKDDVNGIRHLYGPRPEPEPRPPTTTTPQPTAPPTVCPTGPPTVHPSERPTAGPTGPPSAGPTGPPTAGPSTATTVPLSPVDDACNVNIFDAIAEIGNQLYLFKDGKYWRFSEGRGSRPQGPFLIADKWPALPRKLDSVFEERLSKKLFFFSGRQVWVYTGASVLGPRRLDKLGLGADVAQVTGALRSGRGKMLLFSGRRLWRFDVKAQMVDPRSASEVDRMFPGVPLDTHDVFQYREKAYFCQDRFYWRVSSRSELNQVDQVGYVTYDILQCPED
PROTOCOL SUMMARY: Inhibition of recombinant human MMP9 using QXL520-gamma-Abu-Pro-Cha-Abu-Smc-His-Ala-Dab(5-FAM)-Ala-Lys-NH2 as substrate measured every 5 mins for 2 hrs by FRET assay
EXPERIMENTAL READOUT: pIC50
# pIC50: negative log10 of molar concentration; output just the value

Enter recorded pIC50 with Matrix metalloproteinase-9 (Homo sapiens) for [2H]C([2H])(NC(=O)c1cc(C(=O)NCc2ccc(F)c(C)c2)ncn1)c1ccc(C(=O)O)cc1 here.
4.13

---

ASSAYED SYSTEM: 72 kDa type IV collagenase (Homo sapiens, UniProt P08253)
Sequence (P08253 whole entry): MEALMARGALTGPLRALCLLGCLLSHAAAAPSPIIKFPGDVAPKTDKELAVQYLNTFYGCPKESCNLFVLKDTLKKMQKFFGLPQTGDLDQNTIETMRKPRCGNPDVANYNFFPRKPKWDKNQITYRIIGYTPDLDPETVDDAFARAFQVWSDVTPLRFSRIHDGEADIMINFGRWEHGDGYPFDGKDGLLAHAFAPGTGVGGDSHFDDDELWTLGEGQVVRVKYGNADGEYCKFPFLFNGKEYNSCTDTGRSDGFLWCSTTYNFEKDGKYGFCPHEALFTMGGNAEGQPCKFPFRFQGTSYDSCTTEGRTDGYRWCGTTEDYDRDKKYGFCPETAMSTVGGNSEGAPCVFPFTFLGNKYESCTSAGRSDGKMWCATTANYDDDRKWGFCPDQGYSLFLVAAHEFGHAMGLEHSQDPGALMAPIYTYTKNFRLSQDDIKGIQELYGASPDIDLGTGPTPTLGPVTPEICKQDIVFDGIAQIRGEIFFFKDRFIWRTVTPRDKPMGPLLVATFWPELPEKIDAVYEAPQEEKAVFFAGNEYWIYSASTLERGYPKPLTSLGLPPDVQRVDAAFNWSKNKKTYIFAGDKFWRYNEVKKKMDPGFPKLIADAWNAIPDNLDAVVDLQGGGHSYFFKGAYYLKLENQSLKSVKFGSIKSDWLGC
PROTOCOL SUMMARY: Inhibition of recombinant human MMP2 using QXL520-gamma-Abu-Pro-Cha-Abu-Smc-His-Ala-Dab(5-FAM)-Ala-Lys-NH2 as substrate measured every 5 mins for 2 hrs by FRET assay
EXPERIMENTAL READOUT: IC50

Could you please provide reported IC50 for [2H]C([2H])(NC(=O)c1cc(C(=O)NCc2ccc(F)c(C)c2)ncn1)c1ccc(C(=O)O)cc1 ? Thanks!
> 100 µM
